Target: T1, Human IL2Rγ extracellular domain expressed with a C-terminal myc-myc-hexahistidine tag (human)
T1 construct: also called hIL-2Rg-MMH; hIL-2RG-MMH
T1 chain: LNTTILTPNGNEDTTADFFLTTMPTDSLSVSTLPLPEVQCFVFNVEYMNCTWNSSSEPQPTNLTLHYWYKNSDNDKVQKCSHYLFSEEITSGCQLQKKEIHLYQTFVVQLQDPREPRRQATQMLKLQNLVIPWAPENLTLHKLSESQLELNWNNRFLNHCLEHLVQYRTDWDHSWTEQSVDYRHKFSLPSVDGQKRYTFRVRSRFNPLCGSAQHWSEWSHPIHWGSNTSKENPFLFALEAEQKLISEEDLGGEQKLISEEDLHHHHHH
Experiment: SPR Biacore 4000, mAb captured by anti-hFc, HBS-ET, 25C
Protocol: Equilibrium dissociation constants (KD values) for IL-2Rγ binding to purified anti-IL2Rγ monoclonal antibodies were determined using a Biacore 4000 instrument equipped with a real-time surface plasmon resonance biosensor. […] The dissociation of monoclonal antibody bound IL2Rγ reagents were monitored for 8-10 minutes in HBS-ET running buffer. […] Binding dissociation equilibrium constants (KD) and dissociative half-lives (t_{1/2}) were calculated from the kinetic rate constants as: […]
Observed property: koff (s⁻¹)
One number for each entry, in s⁻¹.

Solved entries (count: 2):
H4H13538P (antibody, human IgG4 S228P, kappa, V domains shown, anti-IL2Rγ monoclonal antibody expressed with human IgG4 Fc) VH: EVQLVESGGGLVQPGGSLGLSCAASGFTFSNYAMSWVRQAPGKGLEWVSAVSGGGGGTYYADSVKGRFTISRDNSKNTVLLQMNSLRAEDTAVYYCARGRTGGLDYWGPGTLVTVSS VL: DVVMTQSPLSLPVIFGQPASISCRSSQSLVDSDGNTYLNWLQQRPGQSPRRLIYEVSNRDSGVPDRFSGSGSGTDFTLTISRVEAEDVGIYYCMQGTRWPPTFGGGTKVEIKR; 0.000227
H4H12871P (antibody, human IgG4 S228P, kappa, V domains shown, anti-IL2Rγ monoclonal antibody expressed with human IgG4 Fc; also called REGN9434) VH: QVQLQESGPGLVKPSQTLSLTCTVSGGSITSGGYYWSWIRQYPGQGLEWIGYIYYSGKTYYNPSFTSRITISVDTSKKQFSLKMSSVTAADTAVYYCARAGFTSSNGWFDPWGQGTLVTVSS VL: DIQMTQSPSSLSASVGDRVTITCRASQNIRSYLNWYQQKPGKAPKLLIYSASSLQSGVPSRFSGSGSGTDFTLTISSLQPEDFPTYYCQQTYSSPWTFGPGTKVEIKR; 0.001

Give koff for each of the items listed below.
1. H4H12890P (antibody, human IgG4 S228P, kappa, V domains shown, anti-IL2Rγ monoclonal antibody expressed with human IgG4 Fc) VH: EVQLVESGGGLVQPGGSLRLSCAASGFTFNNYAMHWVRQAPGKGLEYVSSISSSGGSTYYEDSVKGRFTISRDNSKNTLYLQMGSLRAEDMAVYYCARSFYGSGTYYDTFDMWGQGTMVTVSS VL: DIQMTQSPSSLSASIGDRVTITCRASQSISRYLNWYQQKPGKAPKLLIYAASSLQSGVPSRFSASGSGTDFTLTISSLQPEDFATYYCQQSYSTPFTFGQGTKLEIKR
2. H4H12858P (antibody, human IgG4 S228P, kappa, V domains shown, anti-IL2Rγ monoclonal antibody expressed with human IgG4 Fc; also called REGN9433) VH: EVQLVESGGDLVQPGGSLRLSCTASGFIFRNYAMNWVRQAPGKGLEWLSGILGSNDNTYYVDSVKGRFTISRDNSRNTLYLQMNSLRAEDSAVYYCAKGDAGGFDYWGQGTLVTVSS VL: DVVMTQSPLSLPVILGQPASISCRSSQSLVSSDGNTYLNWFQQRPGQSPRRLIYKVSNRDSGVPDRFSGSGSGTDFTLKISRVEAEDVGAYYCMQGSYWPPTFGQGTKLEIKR

OUTPUT:
0.000333
0.000316
